molecular target: 5-hydroxytryptamine receptor 7 (Homo sapiens); experiment: Displacement of [3H]-5-CT from human recombinant 5-HT7 receptor expressed in HEK293 cell membrane after 1 hr by Microbeta scintillation counting analysis
Sequence (P34969 whole entry): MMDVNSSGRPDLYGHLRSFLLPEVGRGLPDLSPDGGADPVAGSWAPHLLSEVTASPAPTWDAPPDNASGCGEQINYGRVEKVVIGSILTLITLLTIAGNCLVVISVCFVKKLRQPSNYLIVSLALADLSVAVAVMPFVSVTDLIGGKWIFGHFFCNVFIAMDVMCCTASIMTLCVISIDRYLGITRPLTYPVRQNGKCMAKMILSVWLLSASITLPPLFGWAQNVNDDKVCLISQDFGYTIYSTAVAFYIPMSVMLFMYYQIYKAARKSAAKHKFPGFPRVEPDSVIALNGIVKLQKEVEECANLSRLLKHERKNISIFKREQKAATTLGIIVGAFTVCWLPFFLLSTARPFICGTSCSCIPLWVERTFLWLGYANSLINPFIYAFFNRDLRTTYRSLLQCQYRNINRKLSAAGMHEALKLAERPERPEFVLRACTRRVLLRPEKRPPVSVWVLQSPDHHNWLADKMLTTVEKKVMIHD
quantity-measured: pKi
# reply with the number alone; pKi is -log10 of concentration in mol/L

Input: 5-hydroxytryptamine receptor 7 (Homo sapiens) / pKi / COc1ccccc1N1CCN(CCCCCN2C(=O)N(Cc3ccccc3)C(=O)C2(C)C)CC1.Cl : value?
Output: 7.14

Input: 5-hydroxytryptamine receptor 7 (Homo sapiens) / pKi / CC1(C)C(=O)N(Cc2ccc(Cl)cc2Cl)C(=O)N1CCCCCN1CCN(c2cccc(Cl)c2Cl)CC1.Cl : value?
Output: 7.51

Input: 5-hydroxytryptamine receptor 7 (Homo sapiens) / pKi / CC1(C)C(=O)N(Cc2ccccc2)C(=O)N1CCCCCN1CCN(c2ccccc2)CC1.Cl : value?
Output: 7.15

Input: 5-hydroxytryptamine receptor 7 (Homo sapiens) / pKi / CC1(C)C(=O)N(Cc2ccc(F)cc2)C(=O)N1CCCCCN1CCN(c2ccc(F)cc2)CC1.Cl : value?
Output: 7.34

Input: 5-hydroxytryptamine receptor 7 (Homo sapiens) / pKi / CN1C(=O)N(CCCCCN2CCN(c3ccccc3F)CC2)C(C)(c2ccccc2)C1=O.Cl (centres undefined) : value?
Output: 6.80

Input: 5-hydroxytryptamine receptor 7 (Homo sapiens) / pKi / CC1(C)C(=O)N(Cc2ccccc2)C(=O)N1CCCCCN1CCN(c2ccccc2F)CC1.Cl : value?
Output: 6.87

Input: 5-hydroxytryptamine receptor 7 (Homo sapiens) / pKi / CC1(C)C(=O)N(Cc2ccccc2)C(=O)N1CCCCCN1CCN(c2ccc(F)cc2)CC1.Cl : value?
Output: 7.35

Input: 5-hydroxytryptamine receptor 7 (Homo sapiens) / pKi / CN1C(=O)N(CCCCCN2CCN(c3ccccc3)CC2)C(c2ccccc2)(c2ccccc2)C1=O.Cl : value?
Output: 7.11

Input: 5-hydroxytryptamine receptor 7 (Homo sapiens) / pKi / COc1ccccc1N1CCN(CCCCCN2C(=O)N(C)C(=O)C2(C)c2ccccc2)CC1.Cl (centres undefined) : value?
Output: 7.47

----------
Give measured inhibition for each item. Keep answers brief.
molecular target: 5-hydroxytryptamine receptor 3A (Homo sapiens); experiment: Reversible inhibition of human 5-HT3A expressed in xenopus oocytes assessed as decrease in 5-HT-activated chloride current at […] by two-electrode voltage clamp technique; format: cell-based
Hi! Could you send only the number? It should be in %, unit omitted.

Input: Looking for the measured inhibition of CC1(C)C(=O)N(Cc2ccccc2)C(=O)N1CCCCCN1CCN(c2ccccc2)CC1.Cl , can you help?
Output: 14.3

Input: Looking for the measured inhibition of COc1ccccc1N1CCN(CCCCCN2C(=O)N(C)C(=O)C2(C)c2ccccc2)CC1.Cl (stereo unspecified) , can you help?
Output: 19.8

Input: Looking for the measured inhibition of CC1(C)C(=O)N(Cc2ccc(Cl)cc2Cl)C(=O)N1CCCCCN1CCN(c2cccc(Cl)c2Cl)CC1.Cl , can you help?
Output: 13.8

Input: Looking for the measured inhibition of COc1ccccc1N1CCN(CC(O)CN2C(=O)NC(C)(c3ccc(F)cc3)C2=O)CC1.Cl (stereo unspecified) , can you help?
Output: 16.6

Input: Looking for the measured inhibition of CC1(C)C(=O)N(Cc2ccc(F)cc2)C(=O)N1CCCCCN1CCN(c2ccc(F)cc2)CC1.Cl , can you help?
Output: 17.2

Input: Looking for the measured inhibition of CN1C(=O)N(CCCCCN2CCN(c3ccccc3)CC2)C(c2ccccc2)(c2ccccc2)C1=O.Cl , can you help?
Output: 36.9
